Hello, the source for this data is patent US20190055576A1, in case you need it.

Collected Non-resistant (number of plants dead) values appear next to each entry.
- Test system: transgenic Arabidopsis thaliana T1 plants (ALT-1-01, ALT-2-01, ALT-3-01; cytoplasmic or chloroplastic)
- ASSAY: Herbicide tolerance of transgenic Arabidopsis thaliana T1 plants expressing thifensulfuron hydrolase, resistance classes counted after spraying
- Assay type: in vivo
- TEST_SETTINGS: At cytoplasmic ALT-3-01 T1 plants; 1-fold field concentration (g ai/ha: Sulfometuron-methyl 30, iodosulfuron-methyl 10, mesosulfuron 14, oxasulfuron 60); 14 days after spraying
When you answer, write just the number.

The examples below pair each entry with its known result.
- COMPOUND: "COC(=O)c1ccccc1S(=O)(=O)NC(=O)Nc1nc(C)cc(C)n1 [Sulfometuron-methyl]"
  Non-resistant (number of plants dead): 3
- COMPOUND: "COC(=O)c1ccc(I)cc1S(=O)(=O)NC(=O)Nc1nc(C)nc(OC)n1 [iodosulfuron-methyl]"
  Non-resistant (number of plants dead): 30
- COMPOUND: "COc1cc(OC)nc(NC(=O)NS(=O)(=O)c2cc(CNS(C)(=O)=O)ccc2C(=O)O)n1 [mesosulfuron]"
  Non-resistant (number of plants dead): 30

Proceed to the following item.
Give the measured Non-resistant (number of plants dead) of Cc1cc(C)nc(NC(=O)NS(=O)(=O)c2ccccc2C(=O)OC2COC2)n1 [oxasulfuron] .
30
